Source of measurements: PubChem BioAssay

assay-comment: binders of probe aHhip on microarray, primary screen, stem cell growth factor project, biochemical, small-molecule microarray, fluorescence 635/667 (AID 1087);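 further: score merges spot fluorescence at 667nm with spot signal to noise ratio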
experimental-parameters: higher = more signal
What composite z-score was measured for each of the following?
// print number alone

QUERY: Which measured composite z-score value corresponds to `C=CCNC(=O)[C@@H]1[C@H]2C(=O)O[C@H](c3ccccc3)[C@H](c3ccccc3)N2[C@H](c2ccc(OCCO)cc2)[C@@]12C(=O)N(C(=O)OCCOC)c1ccccc12` ?
RESULT: 0.0053

QUERY: Fill in the blank: the reported composite z-score of `COc1c(C)cc(-c2cc3c(c(CCc4ccccc4)n2)[Si](C(C)C)(C(C)C)O[C@H]3c2ccccc2)cc1C` is ____.
RESULT: -0.0296

QUERY: Endpoint output: composite z-score of CC(CO)N1C(=O)[C@@H]2[C@H]3C(=O)OCC=C[C@H]3OC23C=CCN(c2ccc4ccccc4c2)C(=O)[C@@H]13 (some centres undefined) . Value?
RESULT: -0.0994

QUERY: Could you share which composite z-score value was measured for COc1cc(CO)cc(I)c1O[C@H]1C=C(C(=O)NCCO)C[C@@H](N(CCN2CCOCC2)C(=O)C2CCCO2)[C@@H]1O (some centres undefined) ?
RESULT: -0.0383

QUERY: Looking for the measured composite z-score of `COc1ccc(C#Cc2ccc3c(c2)[C@]2(C(=O)N3)[C@H](c3ccccc3OCCO)N3[C@H](c4ccccc4)[C@H](c4ccccc4)OC(=O)[C@H]3[C@@H]2C(=O)NC[C@H](O)c2ccccc2)cc1` , can you help?
RESULT: 0.21

QUERY: Find the recorded composite z-score belonging to `COCCOC(=O)N1C(=O)[C@@]2(c3cc(C#CCNC(N)=O)ccc31)[C@H](C(=O)N1CCN(c3ncccn3)CC1)[C@H]1C(=O)O[C@H](c3ccccc3)[C@H](c3ccccc3)N1[C@@H]2c1ccc(O)cc1` and report it.
RESULT: -0.769

QUERY: Reported composite z-score for `Cc1ccc(S[C@]2(C(=O)NCC(C)C)CC(=O)N(C(C)C)[C@@H]2c2ccc(CO)cc2I)cc1` : what is it?
RESULT: 0.0327

QUERY: What does the record list as composite z-score for `CC(=O)NCCCC[C@@H]1NC(=O)[C@H]2C[C@@H](C(=O)O)[C@@H](c3cccc(OCCO)c3)N2C1=O` ?
RESULT: -0.0862

QUERY: Given the entry `COC(=O)C(CC#Cc1ccc2c(c1)[C@]1(C(=O)N2)[C@H](C(=O)N2CCN(c3ncccn3)CC2)[C@H]2C(=O)O[C@H](c3ccccc3)[C@H](c3ccccc3)N2[C@@H]1c1ccc(O)cc1)C(=O)OC` , report its measured composite z-score.
RESULT: 0.102

###

Test system: XIP peptide (Xip251-270) binding
assay-comment: small-molecule binders of XIP peptide, primary screen, biochemical, small-molecule microarray, fluorescence 635/667 nm, 0.1 µg/mL protein (AID 1182)
experimental-parameters: fluorescent protein binding, 635 nm, higher = more signal, called active from +8 up or from −8 down
metric: composite z-score
Answer with a number only.

QUERY: Which composite z-score value is on record for O=C1OCCC/C=C\[C@H]2OC34C=CCN(Cc5ccccc5)C(=O)[C@H]3N(CCO)C(=O)[C@@H]4C12 (stereo not given in full) ?
RESULT: 1.68

QUERY: For the compound shown here, `C=C(CCCC)C(=O)CC[C@@H](OC(C)=O)c1ccc(OCCO)cc1` , give the reported composite z-score.
RESULT: 0.386

QUERY: So what's the measured composite z-score for this one? `C=CCN1C(=O)[C@]2(O[C@H](CCO)[C@@H]([Si](C)(C)c3ccc(OC)cc3)[C@@H]2C)c2cc(N3C(=O)c4ccccc4Oc4ccccc43)ccc21`
RESULT: 0.297

QUERY: Would you mind telling me what composite z-score value was observed for `COC(=O)[C@@]1(Cc2ccccc2)[C@H]2c3cc(C(=O)N(C)C)n(CCF)c3C[C@H]2CN1C(=O)c1ccccc1` ?
RESULT: 1.3

QUERY: If you can, please state the reported composite z-score value of `CCOC(=O)C[C@H]1[C@H](OC(=O)Cc2ccc3c(c2)OCO3)[C@@H](NC(=O)CC(C)C)c2cc(OCCCO)ccc2N1C(=O)c1ccc2ccccc2n1` .
RESULT: 0.216
